# Test Target: GRID2IP_2, A4D2P6
# Sequence (A4D2P6 272-370): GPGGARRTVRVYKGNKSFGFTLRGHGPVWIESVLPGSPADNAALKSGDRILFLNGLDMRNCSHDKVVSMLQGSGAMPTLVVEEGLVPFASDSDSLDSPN
# Protocol Summary: holdup assay
# Parameters: key: below the threshold = too weak to quantify, mostly under pKd 3.1 to 4
# Assay Context: plain residues with an end cap or a label only (N-terminal biotin on a linker: ado-ado)
Quantity Name: pKd

[[record]]
binder = "VYPNAKVELV [PDLIM4_iso2, P50479;P50479-1]"
quantity_name = "pKd"
result = "below the threshold"

[[record]]
binder = "LKVPPEERLI [CRB2, Q5IJ48]"
quantity_name = "pKd"
result = "below the threshold"

[[record]]
binder = "GNSVLKSTQF [SLC22A12, Q96S37]"
quantity_name = "pKd"
result = "below the threshold"

